system: L1210 leukemia ip in BDF1 mice, survival T/C; assay: NCI In Vivo Anticancer Drug Screen. Data for tumor model L1210 Leukemia (intraperitoneal) in B6D2F1 (BDF1) mice; conditions: endpoint: mean survival time; dose: 50.0 mg/kg/injection; schedule: Q04DX003 (ip); vehicle: saline; higher = longer survival
Toxic doses and inconclusive results are not listed.
TEST READOUT: T/C

Worked cases, T/C given:
compound=CC(C)C1(C(=O)O)SCCCS1 test_result="100 % of control"
compound=CCCCCCCCN1CCCNCC1 test_result="109 % of control"

Query: Entry "CC(=O)OCc1c[n+]([O-])c(C)c(OC(C)=O)c1COC(C)=O" has what T/C?
Result: 101 % of control

Query: Entry "CC(=O)c1ccc2cc(O)ccc2c1" has what T/C?
Result: 101 % of control

Query: Entry "CC1(C)COC(CC2CCCCC2)=N1" has what T/C?
Result: 94 % of control

Query: Entry "CC1(C)N=C(N)N=C(N)N1c1cccc(CCCCC(=O)CCl)c1" has what T/C?
Result: 110 % of control

Query: Entry "CCCC(C(=O)OCCN(CC)CC)(c1ccccc1)c1ccccc1" has what T/C?
Result: 100 % of control

Query: Entry "O/N=C/C=N/O.O/N=C/C=N/O.[Cl][Rh][Cl]" has what T/C?
Result: 100 % of control
